system: UACC-257 melanoma; experiment: NCI-60 one-dose screen, 48 h (100 = growth as untreated, 0 = no growth, -100 = all killed); conditions: 10 µM unless noted
This is part of a sample that, as a whole, favours compounds with a hit. Of some 83,000 tested, about 20% had one in any assay.
We begin with a simple list: items and their reported growth.
Readout kind: growth (%)

> print(dat)
                                    compound  readout.kind   val
 1  COc1ccc(-c2nnc3n(C)c(=O)c4ccccc4n23)cc1O        growth  49.8
 2     Nc1nc(CSc2n[nH]c(N)n2)nc(Nc2ccccc2)n1        growth   107
 3    Cc1ccc(Cc2cnc(NC(=O)c3cc(C)oc3C)s2)cc1        growth  94.2
 4  Cc1ccc(-c2nc(C#N)c(S(=O)(=O)N(C)C)o2)cc1        growth  94.8
 5  Cn1c(=O)c2c(nc(Nc3cc(=O)[nH]c(=O)[nH]3)n2Cc2ccccc2)n(C)c1=O        growth  47.3
 6   c1ccc(-c2cc(-c3cc(-c4ccccc4)on3)no2)cc1        growth  79.6
 7   CCOC(=O)c1cnn(-c2ccc(S(N)(=O)=O)cc2)c1N        growth  96.1
 8                              NNCCc1ccccc1        growth   121
 9  COc1cccc(NC(=O)c2sc3nc(C)c(C(O)c4ccccc4)cc3c2N)c1 (stereo unspecified)        growth  71.4
10    N=C(N)SCc1c2ccccc2c(CSC(=N)N)c2ccccc12        growth   119
11     Cc1ccc(/C=C(\C#N)c2cc3ccccc3[nH]2)cc1        growth  72.4

###

test system: A498 renal; assay: NCI-60 one-dose screen, 48 h; conditions: 10 µM unless noted
The panel holds about 83,000 compounds, 20% with a hit somewhere; the sample as a whole holds those more often. Active and inactive are the calls of the source. The calls were made as follows: active = growth percent below 10; inactive = the rest.
Outcome codes: yes (1) for active, no (0) for inactive

> print(dat)
                                   compound  assigned.category
1  CCN1C(=O)N(c2ccccc2)C2NC(=S)N(/N=C/C=C/c3ccccc3)C21 (centres undefined)            yes (1)
2  CC1=C2[C@@H](CC1)[C@]1(C)O[C@@](C(C)C)(C[C@H]1OC(=O)CO)[C@H]2OC(=O)C1CC1c1ccccc1 (some centres undefined)            yes (1)
3  COc1cc(/C=C/C(=O)c2ccc(NC(=O)CSc3nnc(-c4cc(-c5ccccc5)nc5ccccc45)n3-c3ccccc3)cc2)cc(OC)c1OC             no (0)
4  COc1ccc(/C(C)=C(\c2ccc(OCCN3CCOCC3)cc2)c2ccc(OC(=O)C3CCCCC3)cc2)cc1             no (0)
5  COc1ccc(S(=O)(=O)Nc2cc(Sc3cccc4cccnc34)c(O)c3ccccc23)cc1             no (0)
6  COc1nc2ccc(C)cc2cc1/C=[N+](\[O-])c1ccccc1             no (0)
7  CCn1cc(C(=O)NN=C2CCCC2)c(=O)c2ccc(C)nc21             no (0)
8       N#Cc1c(N)nnn1Cc1cc(=O)oc2ccc(O)cc12             no (0)
9  Cc1ccc(NC(=O)c2sc3nc(C)c(C(=O)c4ccccc4)cc3c2N)cc1            yes (1)

###

System: K-562 leukemia
Test: NCI-60 one-dose screen, 48 h
Conditions: 10 µM unless noted
Description: Cells are grown in 96 well plates and exposed to the test compound for 48 hours. Compounds are tested at a single concentration, which is 10^-5 M for most compounds. The reported endpoint is percent growth (GI% or GIPRCNT), where numbers from 0 - 100% represent growth inhibition, and numbers from -100% - 0 represent cell death. For example, a value of 40 represents 60% growth inhibition. A value of 0 means no net growth occurred over the course of the experiment. […]
This is part of a sample that, as a whole, favours compounds with a hit. Of some 83,000 tested, about 20% had one in any assay. Calls of active or inactive are those of the source. The calls were made as follows: active = growth percent below 10; inactive = the rest.
Outcomes: 1 = active, -1 = inactive

> print(dat)
                                    molecule  assigned.category
 1  COCCn1cc(-c2csc(-c3cn(C)c4ccc(F)cc34)n2)c2cccnc21                  1
 2  O=C1CCc2c(sc3[nH]c(=S)n(Cc4ccc(Cl)cc4)c(=O)c23)C1                 -1
 3     Cc1ccc(/C=C2\COc3ccc(O)c(O)c3C2=O)cc1                 -1
 4  CN1CCCc2cc(/C=C3\SC(=S)N(C(Cc4ccc(O)cc4)C(=O)O)C3=O)ccc21 (stereo not given)                 -1
 5  O=C(/C=C/c1cccs1)Nc1ncc(Cc2ccc(Cl)c(Cl)c2)s1                 -1
 6                 COC1=CC(=O)C(OC)=C(O)C1=O                 -1
 7  CCCCCCCC/C=C\CCCCCCCCOc1ccccc1CC(=O)NCC[N+]1(C)CCOCC1                 -1
 8  Nc1nc(N)c2c(n1)NC(c1cccc(Nc3ccnc4cc(C(F)(F)F)ccc34)c1)CC(c1ccc(F)cc1)=N2 (stereo not given)                  1
 9  C#CCOc1cccc(Nc2ncc3ncn(C4CCN(C(=O)CCl)C4)c3n2)c1 (stereo not given)                  1
10  Nc1nc(Cl)nc2c1ncn2C1OC(CO)C(O)C1O (stereo not given)                 -1

###

Known growth of a selection of compounds
test system: EKVX NSCLC; experiment: NCI-60 one-dose screen, 48 h (100 = growth as untreated, 0 = no growth, -100 = all killed); details: 10 µM unless noted
The panel holds about 83,000 compounds, 20% with a hit somewhere; the sample as a whole holds those more often.
Readout kind: growth (%)

> print(dat)
                                   compound  readout.kind  unit.symbol    val
1  CN1CCN(Cc2ccc(NC(=O)c3cccc(C#Cc4c(N)ncc5ccc(F)cc45)c3)cc2C(F)(F)F)CC1        growth            %  -19.6
2  CC1=C2[C@@H](CC1)[C@]1(C)O[C@@](C(C)C)(C[C@H]1OC(=O)CO)[C@H]2OC(=O)C1CC1c1ccccc1 (stereo not given in full)        growth            %   93.8
3      Nc1[nH]nc(Nc2ccccc2)c1-c1nc2ccccc2s1        growth            %     19
4  C=C(C)[C@@H]1CC[C@]2(C)[C@H](CC(=O)N[C@H]3[C@@H]4C[C@](C)(C(=O)OC)CC[C@]4(C)CC[C@]32C)[C@@]1(C)CCC#N        growth            %   93.2
5      N#C/C(=C\c1ccccc1Cl)c1cc2ccccc2[nH]1        growth            %   77.1

###

system: NCI/ADR-RES ovarian; assay: NCI-60 one-dose screen, 48 h (100 = growth as untreated, 0 = no growth, -100 = all killed); conditions: 10 µM unless noted
The panel holds about 83,000 compounds, 20% with a hit somewhere; the sample as a whole holds those more often.
Binary classification by growth, with 90% as an inclusive lower bound for true (1); all other cases are false (0).

Compound	Assigned category
CCOC(=O)c1nnn(Cc2cc(=O)oc3c2ccc2ccccc23)c1C	true (1)
O=C1C(Nc2ccc(Cl)cc2)=C(I)C(=O)c2ncccc21	false (0)
C=C(C)[C@@H]1CC[C@]2(C(=O)O)CC[C@]3(C)[C@H](CC[C@@H]4[C@@]5(C)CCC(N)C(C)(C)[C@@H]5CC[C@]43C)[C@@H]12 (some centres undefined)	false (0)
CCN(CC)CCOc1ccccc1C	true (1)
Cc1ccc(C(=O)Nc2ccc(CN3CCN(C)CC3)c(C(F)(F)F)c2)cc1C#Cc1cnc(N)cc1C#N	false (0)
CCNC(=O)Nc1ncccc1OCc1ccc(F)cc1	true (1)
CCN1CCN(C(=O)[C@]23CC[C@@H](C)[C@H](C)[C@@H]2C2=CC[C@@H]4[C@@]5(C)CCC(=O)C(C)(C)[C@@H]5CC[C@@]4(C)[C@]2(C)CC3)CC1	false (0)
Cc1ccc(-c2nc(SCC(=O)c3ccc(C#N)cc3)[nH]c(=O)c2C#N)cc1	true (1)
COc1cc(/C=C2/C=C(c3ccc(C(C)(C)C)cc3)N(CCc3ccc(S(N)(=O)=O)cc3)C2=O)cc(OC)c1OC	false (0)
COc1ccc(C(=O)N/N=C/c2ccc(O)cc2O)cc1Nc1ccnc(C(F)(F)F)c1	false (0)
CN(Cc1ccccc1)c1nc(Cl)c(C2CC(c3ccc4c(c3)OCO4)=NN2c2cc(Cl)cc(Cl)c2)s1 (centres undefined)	true (1)
CN1CCN(c2ccc(/C=C/C(=O)c3ccc(O)cc3)cc2)CC1	true (1)
CCC(=C(c1ccc(OCCCN(C)C)cc1)c1ccc(OCCCN(C)C)cc1)c1ccc(Cl)cc1	false (0)
COc1ccc(Oc2nc(Nc3ccc(N4CCOCC4)cc3)ncc2NC(=O)c2cccc(C(F)(F)F)c2)cc1	false (0)
O=C1OCC2=C1C(c1cccc(C(F)(F)F)c1)c1cc3c(cc1N2CCO)CCC3 (centres undefined)	false (0)
CCOC(=O)CC1CSC(c2cccc(Cl)c2)=N1 (centres undefined)	true (1)
C=C1C(=O)O[C@@H]2[C@H]3[C@H](COC(C)=O)[C@@H](OC(C)=O)C[C@H]3C(=C)[C@@H](O)C[C@@H]12	true (1)

Values were extracted from PubChem BioAssay (NCI).
